Listed here: molecules with reported GI50 for MDA-MB-435.

- Nc1nc(N)c2c(ccc3c2ccn3Cc2cccc([N+](=O)[O-])c2)n1: 0.0217 µM
- CCN(CC)CCOc1nc2ccccc2c2c1-c1ccc(OC)cc1C2=O: 0.881 µM
- CC1=CC2(C)/C=C(C)/C=C\CC(O)/C=C3/C=CC(=C4C(=O)OC2(CC1C)C4=O)OC3 (stereo not given): 2 µM
- C=CCc1c(O)c(C(=O)/C=C/c2ccc(Cl)cc2)c(OC)c2ccoc12: 2.06 µM

Consider the additional molecule presented here.
query: API: value(readout=GI50, system=MDA-MB-435) for record `CC1=CC(C)=N/C(=N/S(=O)(=O)c2cc(C)c(Cl)cc2SCc2ccccc2)NN1`
result: > 100 µM

====

# System: MALME-3M melanoma
# assayOverview: NCI tumour cell line growth inhibition, 48 h
Entries annotated with measured TGI
Write down the numeric answer in µM and omit the unit.

* COC(=O)C1=C(C)NC(=S)NC1c1ccc(N(CCCl)CCCl)cc1Cl (stereo not given) | 41.7
* COc1cc2[nH]c3c(c2cc1OC)CCN[C@@]31CC[C@@]2(CC3c4c(cc(OC)c(O)c42)CCN3C)C[C@@H]1OC (stereo not given in full) | 33.8

query: API: value(readout=TGI, system=MALME-3M melanoma) for record `c1ccc2c(N=NSc3ncnc4nc[nH]c34)c3ccccc3nc2c1`
result: 4.11

====

# System: NCI/ADR-RES ovarian
# assayOverview: NCI tumour cell line growth inhibition, 48 h
resultType: TGI

• CCC[N+](C)(C)CCCNC(=O)c1c(O)c2ccccc2[nH]c1=O = > 100 µM
• Cc1[nH]nc(C(F)(F)F)c1Cc1sc2c(c1C(=O)N1C[C@](C)(O)CO1)c(=O)n(C)c(=O)n2C(C)C = > 100 µM
• N#Cc1c(/C=C/c2ccccc2)c2c([nH]c1=S)CCCCC2 = > 100 µM

query: Bench note: what TGI did `NC1(c2cc3ccccc3s2)CCCCCC1` show?
result: 33.7 µM

query: Would you kindly repeat that for `CCC(=O)NC1=C(Cl)C(=O)C(NC(=O)CC)=C(Cl)C1=O` ?
result: 58.6 µM

query: Would you kindly repeat that for NC1CC(=O)c2c(-c3cccs3)sc(-c3cccs3)c21 (stereo unspecified) ?
result: > 100 µM

====

Entries annotated with measured TGI
# Tested on: A498 renal
# assayOverview: NCI tumour cell line growth inhibition, 48 h
Write down the numeric answer in µM and omit the unit.

Sample records with TGI:
• O=C1/C=C/[C@@H](O)[C@@H]2C[C@@H](O)C[C@H]2/C=C/CCC[C@H](CCO)O1 = 0.274
• COc1cc2c(cc1OC)C(Cl)C(c1ccc(Br)cc1)=C2Cl (stereo not given) = 33.1
• COc1cc2c(cc1OCC(=O)Nc1ccc(Cl)cc1C(=O)c1ccccc1Cl)N=CC1CCCN1C2=O (stereo not given) = 24.9
• CCCCCCCCCCCCCCNCC(OC)OC = 35
• O=C1C(c2ccccc2)=C(c2ccccc2)C1(Cl)Cl = 17.2
• COc1ccc2c3ccnc(C(F)(F)F)c3n(CCCCN)c2c1 = 18

query: Bench note: what TGI did `Cc1cc2nc3c(C#N)c(C)c(CCCl)c(Cl)n3c2cc1C` show?
result: 7.64

query: Would you kindly repeat that for `C[C@@H]1CC[C@@H]2[C@@H]1[C@H](OC(=O)/C=C/C1CCCCC1)[C@]1(C3CCCCC3)C[C@@H](OC(=O)CO)[C@@]2(C)O1` ?
result: 0.0801

query: Would you kindly repeat that for `C[C@]12CC[C@H]3[C@@H](CC[C@]4(O)C[C@@H](O)CC[C@]34C=O)[C@@]1(O)CC[C@@H]2C1=CC(=O)OC1` ?
result: 1.93

query: Would you kindly repeat that for `Cc1ccc2ccccc2c1CSc1nc(N)nc2c1ncn2CC(C)C` ?
result: 99.6

query: Would you kindly repeat that for `C=CCc1c(O)c(C(=O)/C=C/c2ccc(Cl)cc2)c(OC)c2ccoc12` ?
result: 13

====

# Tested on: HS 578T breast
# assayOverview: NCI tumour cell line growth inhibition, 48 h
Entries annotated with measured log10 TGI
Friendly reminder: values = log10 of TGI, unit µM.

Sample records with log10 TGI:
• Clc1cnc(Nc2ccc(OCCN3CCCC3)cc2)nc1NCc1ccco1 = 0.71
• OC(CCN1CCN(CCOC(c2ccccc2)c2ccccc2)CC1)c1ccccc1 (stereo not given) = 1.65
• COc1ccc2c3ccnc(C(F)(F)F)c3n(CCCCN)c2c1 = 1.36
• COc1cc2ncnc(Oc3ccc(NC(=O)Nc4ccc(CN5CCOCC5)c(C(F)(F)F)c4)c4ccccc34)c2cc1OC = 0.86
• O=C(Nc1ccc(Br)c2ccccc12)c1ccc2ccccc2c1O = 1.13
• CCOC(=O)c1sc2nc(SC)nc3c2c1NCN3C = 1.77
• COC(=O)Nc1nc2ccc(C(=O)c3cccc(I)c3)cc2[nH]1 = 1.41
• CC(C)[C@@H](C(=O)O[C@@H]1/C=C/C(=O)O[C@@H](C)CCC/C=C/[C@@H]2C[C@H](O)C[C@H]21)N(C)C = 1.70
• O=[N+]([O-])c1ccc2c(c1)C(N1CCN(CCO)CC1)Cc1ccc(F)cc1S2 (stereo not given) = 1.42
• C[C@@H]1CC[C@@H]2[C@@H]1[C@H](OC(=O)/C=C/C1CCCCC1)[C@]1(C3CCCCC3)C[C@@H](OC(=O)CO)[C@@]2(C)O1 = -1.25

query: Bench note: what log10 TGI did `CCN(CC)CCOc1nc2ccccc2c2c1-c1ccc(OC)cc1C2=O` show?
result: 0.76

====

# System: SF-268 CNS
# assayOverview: NCI tumour cell line growth inhibition, 48 h
resultType: TGI

• CC1=CC(C)=N/C(=N/S(=O)(=O)c2cc(C)c(Cl)cc2SCc2ccccc2)NN1 = > 100 µM
• NC1CC(=O)c2c(-c3cccs3)sc(-c3cccs3)c21 (centres undefined) = > 100 µM
• COc1ccc(C(=O)/C=C/c2ccc(OCc3cccc(C(F)(F)F)c3)c(OC)c2)cc1OC = > 1000 µM

query: Bench note: what TGI did CCO/C=C\C12CCCC1NC(c1ccccc1)(c1ccccc1)O2 (centres undefined) show?
result: > 100 µM

query: Would you kindly repeat that for `CCOc1ccc2c(c1)C(/C(C(Cl)=C(Cl)Cl)=[N+](/[O-])OC(=O)c1ccccc1)=N2` ?
result: > 100 µM

====

# System: LOX IMVI melanoma
# assayOverview: NCI tumour cell line growth inhibition, 48 h
resultType: TGI (µM)
Write down the numeric answer in µM and omit the unit.

• COc1cc2c(cc1OC)C(Cl)C(c1ccc(Br)cc1)=C2Cl (centres undefined) = 24.4

query: Bench note: what TGI did `NS(=O)(=O)c1ccc(-n2nc3c(c2-c2cccs2)Cc2ccccc2-3)cc1` show?
result: 19.9

query: Would you kindly repeat that for `C=C1C(=O)O[C@@H]2/C=C(/C)[C@@H](OC(C)=O)C[C@@H](O)/C(C)=C\[C@@H](OC(=O)[C@]3(C)O[C@@H]3C)[C@@H]12` ?
result: 20.4

====

# System: K-562 leukemia
# assayOverview: NCI tumour cell line growth inhibition, 48 h
resultType: TGI

Sample records with TGI:
- O=[N+]([O-])c1ccc2c(c1)C(N1CCN(CCO)CC1)Cc1ccc(F)cc1S2 (stereo not given): 12.6 µM
- N#Cc1ccc(-c2ccc(Cl)cc2)n(C2OC(CO)C(O)C(O)C2O)c1=S (stereo not given): > 100 µM
- CC(C)[C@@H](C(=O)O[C@@H]1/C=C/C(=O)O[C@@H](C)CCC/C=C/[C@@H]2C[C@H](O)C[C@H]21)N(C)C: 50.7 µM
- CC1(C)OCC2OC(n3cnc4c(N)nc(Cl)nc43)C(OS(C)(=O)=O)C2O1 (stereo not given): > 100 µM
- O=C(CCCCCNC(=O)c1ccc(Cl)cc1)NO: > 100 µM
- O=C1C=CC2C3C(=O)N(c4ccccc4)C(=O)C3C1N2Cc1ccccc1 (stereo not given): 6.55 µM
- CCC[N+](C)(C)CCCNC(=O)c1c(O)c2ccccc2[nH]c1=O: > 100 µM
- COc1c(C(N)=O)cc(-c2ccc(Cl)cc2)cc1-c1ccc(S(N)(=O)=O)cc1: > 20.3 µM
- N#Cc1c(/C=C/c2ccccc2)c2c([nH]c1=S)CCCCC2: > 100 µM

query: Bench note: what TGI did `C=C(C)C1(Sc2ccc(OC)cc2)CC1` show?
result: > 100 µM

====

# Test system: IGROV1 ovarian
# assayOverview: NCI tumour cell line growth inhibition, 48 h
resultType: TGI

Sample records with TGI:
• CCOC(=O)c1ccc2nc3n(c2c1)C(c1c(F)cccc1F)SC3 (stereo unspecified) = > 100 µM
• Cc1cc2nc3c(C#N)c(C)c(CCCl)c(Cl)n3c2cc1C = 3.93 µM
• COc1cccc(N2CC(O)=C(c3nc4ccccc4s3)C2=N)c1 = > 75.6 µM
• COc1cc(/C=C2\[C@@H]3NC(Cc4c(OC)c(C)c(OC)c(OC)c43)C(=O)N2Cc2ccccc2)c(OC)c(C)c1OC = > 100 µM
• NC(=Nc1ccccc1)N/N=C/c1c[nH]c2ccccc12 = 32.7 µM
• CCOC(=O)c1nc2ccccc2nc1Nc1ccc(C(=O)OC)s1 = > 100 µM
• NS(=O)(=O)c1ccc(-n2nc3c(c2-c2cccs2)Cc2ccccc2-3)cc1 = 15.5 µM
• COc1cc2nc(-c3cccs3)nc(N3CCN(c4ccccc4)CC3)c2cc1OC = > 100 µM
• CCC[N+](C)(C)CCCNC(=O)c1c(O)c2ccccc2[nH]c1=O = > 100 µM
• CC1(C)C2CC3C(C)(C2)C31c1cc(Cl)ccc1N (stereo unspecified) = 27.6 µM

query: API: value(readout=TGI, system=IGROV1 ovarian) for record `NC(=O)NNC/C(Cl)=C(\Cl)C(=O)O`
result: > 100 µM
